biological target: recombinant GST-p110γ (human PI3Kγ residues 38-1102) (Homo sapiens); assay: in vitro kinase assay (Scintillation Proximity Assay), phosphate transfer from ATP to phosphatidylinositol; conditions: 12.5 μM ATP in assay mix, 60 minutes at room temperature
Sequence (P48736 38-1102): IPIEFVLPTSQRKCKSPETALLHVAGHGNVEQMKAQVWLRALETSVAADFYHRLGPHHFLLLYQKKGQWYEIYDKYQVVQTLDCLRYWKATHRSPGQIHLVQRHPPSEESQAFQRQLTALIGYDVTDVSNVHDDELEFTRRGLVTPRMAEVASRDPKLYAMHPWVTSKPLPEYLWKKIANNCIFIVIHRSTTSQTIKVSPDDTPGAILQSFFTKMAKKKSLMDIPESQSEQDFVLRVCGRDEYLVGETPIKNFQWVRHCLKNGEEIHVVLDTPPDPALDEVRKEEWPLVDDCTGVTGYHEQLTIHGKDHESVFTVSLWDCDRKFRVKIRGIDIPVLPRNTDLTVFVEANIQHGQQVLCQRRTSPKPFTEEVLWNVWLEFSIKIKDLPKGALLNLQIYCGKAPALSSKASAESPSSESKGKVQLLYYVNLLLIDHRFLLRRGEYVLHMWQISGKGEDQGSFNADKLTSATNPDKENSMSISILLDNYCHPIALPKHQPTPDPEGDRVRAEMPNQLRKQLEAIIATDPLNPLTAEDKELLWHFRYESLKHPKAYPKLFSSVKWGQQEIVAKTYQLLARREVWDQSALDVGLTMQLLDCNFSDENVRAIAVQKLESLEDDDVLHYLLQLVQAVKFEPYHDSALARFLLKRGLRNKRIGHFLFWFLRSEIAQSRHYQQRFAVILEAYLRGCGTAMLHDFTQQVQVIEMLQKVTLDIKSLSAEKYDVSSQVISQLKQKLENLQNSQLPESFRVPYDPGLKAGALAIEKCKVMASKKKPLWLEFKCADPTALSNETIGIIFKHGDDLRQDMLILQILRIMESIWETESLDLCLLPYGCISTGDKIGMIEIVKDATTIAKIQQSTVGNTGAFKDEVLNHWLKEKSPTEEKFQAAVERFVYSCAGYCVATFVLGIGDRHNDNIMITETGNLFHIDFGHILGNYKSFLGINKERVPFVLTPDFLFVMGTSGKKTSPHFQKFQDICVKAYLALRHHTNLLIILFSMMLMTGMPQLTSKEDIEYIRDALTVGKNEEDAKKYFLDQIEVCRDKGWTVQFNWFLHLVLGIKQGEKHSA
ASSAY_ENDPOINT: pIC50
Keep it numeric: pIC50 is minus log10 of the concentration in mol/L.

Lookup: Please tell me: pIC50 of CC(=O)c1ccc(-c2sc(NC(=O)NCCc3cn(CCF)cn3)nc2C)cc1 , system recombinant GST-p110γ (human PI3Kγ residues 38-1102) (Homo sapiens)?
Found: 6.96
